Source listed as ChEMBL document CHEMBL3102784.

test system: HepG2; assay: Cytotoxicity against human HepG2 cells after 24 hrs by CellTiter assay; assay type: cell-based; settings: HepG2, 24 h
Form field: IC50 (one value per entry).
Enter your answer as a number in µM; do not include the unit.

Below are worked cases with known answers.
| smiles | unit.info | IC50 |
| --- | --- | --- |
| CCOP(=O)(OCC)Oc1ccc(Cl)cc1C(=O)Nc1cccc(Cl)c1 | µM | 2.68 |
| CCOP(=O)(OCC)Oc1ccc(Br)cc1C(=O)Nc1ccc(Cl)c(Cl)c1 | µM | 2.04 |

Exam item: Quick check: IC50 of CCOP(=O)(OCC)Oc1ccc(Cl)cc1C(=O)Nc1ccc(C(F)(F)F)cc1 ?
Marked response: 2.33

Exam item: Follow-up entry: CCOP(=O)(OCC)Oc1ccc(Cl)cc1C(=O)Nc1ccc(Cl)cc1
Marked response: 13

Exam item: Follow-up entry: CCOP(=O)(OCC)Oc1cc(Cl)ccc1C(=O)Nc1cccc(F)c1
Marked response: 11.2

Exam item: Follow-up entry: CCOP(=O)(OCC)Oc1cc(Cl)ccc1C(=O)Nc1cccc(Br)c1
Marked response: 8.07

====

tested on: Aspergillus fumigatus; assay: Antifungal activity against Aspergillus fumigatus 231 after 48 hrs by broth microdilution method; assay type: functional; details: Aspergillus fumigatus, 231, 48 h
Form field: MIC50 (one value per entry).

Below are worked cases with known answers.
| smiles | data.value |
| --- | --- |
| CCOP(=O)(OCC)Oc1ccc(Cl)cc1C(=O)Nc1ccc(Br)cc1 | > 500 µM |
| CCOP(=O)(OCC)Oc1ccc(Cl)cc1C(=O)Nc1ccc(C(F)(F)F)cc1 | > 250 µM |
| CCOP(=O)(OCC)Oc1ccc(Cl)cc1C(=O)Nc1cccc(Br)c1 | > 500 µM |
| CCOP(=O)(OCC)Oc1cc(Cl)ccc1C(=O)Nc1cccc(C(F)(F)F)c1 | > 500 µM |

We next turn to a different compound, shown below.
Exam item: Quick check: MIC50 of CCOP(=O)(OCC)Oc1cc(Cl)ccc1C(=O)Nc1cccc(Cl)c1 ?
Marked response: > 500 µM

====

system: Staphylococcus aureus; test: Antibacterial activity against methicillin-resistant Staphylococcus aureus H 5996/08 after 24 hrs by broth microdilution method; assay type: functional; conditions: H 5996/08, 24 h
Form field: MIC95 (one value per entry).
Enter your answer as a number in µM; do not include the unit.

Below are worked cases with known answers.
| smiles | MIC95 / µM |
| --- | --- |
| CCOP(=O)(OCC)Oc1ccc(Br)cc1C(=O)Nc1ccc(F)cc1 | 500 |
| CCOP(=O)(OCC)Oc1ccc(Br)cc1C(=O)Nc1ccc(Cl)c(Cl)c1 | 500 |
| CCOP(=O)(OCC)Oc1ccc(Br)cc1C(=O)Nc1ccc(C(F)(F)F)cc1 | 15.6 |
| CCOP(=O)(OCC)Oc1ccc(Cl)cc1C(=O)Nc1ccc(C(F)(F)F)cc1 | 62.5 |
| CCOP(=O)(OCC)Oc1ccc(Br)cc1C(=O)Nc1ccc(Br)cc1 | 3.9 |

Exam item: Quick check: MIC95 of CCOP(=O)(OCC)Oc1cc(Cl)ccc1C(=O)Nc1cccc(Br)c1 ?
Marked response: 250

Exam item: Follow-up entry: CCOP(=O)(OCC)Oc1ccc(Br)cc1C(=O)Nc1cccc(Br)c1
Marked response: 31.2

Exam item: Follow-up entry: CCOP(=O)(OCC)Oc1ccc(Cl)cc1C(=O)Nc1cccc(F)c1
Marked response: 500
